- target-or-system: UniProt:Q02763
- Sequence (Q02763 23-1124, species assumed): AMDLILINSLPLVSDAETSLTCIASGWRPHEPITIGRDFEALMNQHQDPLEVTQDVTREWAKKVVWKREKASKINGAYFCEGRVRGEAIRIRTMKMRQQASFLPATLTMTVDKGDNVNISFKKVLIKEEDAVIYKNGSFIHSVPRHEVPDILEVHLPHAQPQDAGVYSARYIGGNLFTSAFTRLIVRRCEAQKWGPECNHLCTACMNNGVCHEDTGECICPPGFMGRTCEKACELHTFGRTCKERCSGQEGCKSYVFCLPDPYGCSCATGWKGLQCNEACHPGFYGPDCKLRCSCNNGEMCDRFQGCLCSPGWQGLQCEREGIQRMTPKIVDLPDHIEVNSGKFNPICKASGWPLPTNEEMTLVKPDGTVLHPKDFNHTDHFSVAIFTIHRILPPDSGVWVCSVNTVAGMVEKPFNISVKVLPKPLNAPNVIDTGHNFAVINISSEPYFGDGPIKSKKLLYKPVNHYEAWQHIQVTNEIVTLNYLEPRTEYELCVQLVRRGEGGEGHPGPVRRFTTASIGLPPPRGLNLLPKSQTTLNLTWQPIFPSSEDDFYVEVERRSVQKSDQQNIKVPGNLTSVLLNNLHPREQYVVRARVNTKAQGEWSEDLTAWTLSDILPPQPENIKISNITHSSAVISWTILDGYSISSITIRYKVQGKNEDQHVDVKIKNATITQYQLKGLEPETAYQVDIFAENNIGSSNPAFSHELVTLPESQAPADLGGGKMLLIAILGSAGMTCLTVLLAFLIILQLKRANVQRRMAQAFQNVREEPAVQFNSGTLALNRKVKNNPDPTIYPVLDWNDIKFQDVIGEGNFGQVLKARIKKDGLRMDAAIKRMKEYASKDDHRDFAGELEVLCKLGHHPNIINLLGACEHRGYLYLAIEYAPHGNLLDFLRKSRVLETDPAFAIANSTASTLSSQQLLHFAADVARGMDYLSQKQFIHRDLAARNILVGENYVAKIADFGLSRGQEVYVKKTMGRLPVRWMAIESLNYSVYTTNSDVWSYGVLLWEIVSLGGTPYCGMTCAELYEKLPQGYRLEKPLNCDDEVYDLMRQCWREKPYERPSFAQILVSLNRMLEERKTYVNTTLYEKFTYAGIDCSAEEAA
endpoint: IC50 (nM)
Express the result in nM but write the number alone.

Prompt line: Reported IC50, molecule `Nc1nc2cc(Br)ccc2n1Cc1ccc(NS(=O)(=O)c2cccc(Cl)c2Cl)cc1` : ____
Response line: 2780

Numbers sourced from patent US20070066606A1.
